test name: Oral bioavailability in Beagle dog at 0.2 to 1 mg/kg measured up to 24 hrs by HPLC-MS-MS analysis
Type: ADME, organism-based, Canis lupus familiaris
condition details: in vivo
assay metric: bioavailability (%)

P. Cc1cc(-c2cnc3c(NCCC(F)(F)F)cc(C4(c5cc(F)ccc5O)CC4)nn23)ccc1C(=O)NC1CC1
Q. COc1cc(C(=O)N2CC(F)C2)ccc1Nc1nc2ccc(-c3ccc(NC(=O)[C@H](C)c4ccc(F)cc4)cc3)cn2n1
R. C=C(c1ccc(OC)c(F)c1)c1cc(NCCC(F)(F)F)c2ncc(-c3ccc(C(=O)NC4CC4)c(C)c3)n2n1
Request: Re-order the entries listed above so their bioavailability values fall from first to last. Return value: ordered labels per request.
Result: P, Q, R

----------
test name: Oral bioavailability in Wistar rat at 0.2 to 1 mg/kg measured up to 24 hrs by HPLC-MS-MS analysis
Assay type: ADME, organism-based
condition details: in vivo
assay metric: bioavailability (%)

Here's what some known entries look like.
- CNC(=O)Nc1ccc(-c2cnc3c(NCC(C)C)nccn23)cc1: 94
- COc1cc(C(=O)N2CC(F)C2)ccc1Nc1nc2ccc(-c3ccc(NC(=O)[C@H](C)c4ccc(F)cc4)cc3)cn2n1: 55
- COc1cc(N2CCOC2=O)ccc1Nc1nc2ccc(-c3ccc(NC(=O)[C@H](C)c4ccc(F)cc4)cc3)cn2n1: 49
- C=C(c1ccc(OC)c(F)c1)c1cc(NCCC(F)(F)F)c2ncc(-c3ccc(C(=O)NC4CC4)c(C)c3)n2n1: 33
- N#Cc1ccccc1Nc1nc2ccc(-c3ccc(NC(=O)Cc4ccc(F)cc4)cc3)cn2n1: 6.6

I. COc1cc(S(C)(=O)=O)ccc1Nc1nc2ccc(-c3ccc(NC(=O)[C@H](C)c4ccc(F)cc4)cc3)cn2n1
II. Cc1cc(-c2cnc3c(NCC(C)C)nccn23)ccc1C(=O)NC1CC1
Request: Between the two listed entries I and II , which has its bioavailability at the higher number? To answer, give the label that identifies your chosen option.
Result: I

----------
test name: Lipophilicity, LogD of compound at pH 7.5 by reverse phase HPLC analysis
Format: physicochemical
condition details: buffer
assay metric: chromatographic logD
// no unit, no text: just the number

// O=C(Cc1ccc(F)cc1)Nc1ccc(-c2ccc3nc(Nc4ccc(C(=O)N5CCOCC5)cc4OCC(F)(F)F)nn3c2)cc1 : chromatographic logD value = 3.9

----------
test name: Half life in Beagle dog at 0.1 to 0.5 mg/kg, administered as iv infusion measured up to 24 hrs by HPLC-MS-MS analysis
Format: ADME, organism-based, Canis lupus familiaris
condition details: in vivo
assay metric: half-life (h)

- COc1cc(S(C)(=O)=O)ccc1Nc1nc2ccc(-c3ccc(NC(=O)[C@H](C)c4ccc(F)cc4)cc3)cn2n1: 6.3
- C=C(c1ccc(OC)c(F)c1)c1cc(NCCC(F)(F)F)c2ncc(-c3ccc(C(=O)NC4CC4)c(C)c3)n2n1: 0.84
- COc1cc(C(=O)N2CC(F)C2)ccc1Nc1nc2ccc(-c3ccc(NC(=O)[C@H](C)c4ccc(F)cc4)cc3)cn2n1: 7

I. Cc1cc(-c2cnc3c(NCCC(F)(F)F)cc(C4(c5cc(F)ccc5O)CC4)nn23)ccc1C(=O)NC1CC1
II. COc1ccc(Oc2cc(NCCC(F)(F)F)c3ncc(-c4ccc(C(=O)NC5CC5)c(C)c4)n3n2)c(F)c1F
Request: Between the two listed entries I and II , which has its half-life at the higher number? To answer, give the label that identifies your chosen option.
Result: II

----------
Test system: HeLa
test name: cells
condition details: Homo sapiens, 96 h
Description: Antiproliferative activity against human HeLa cells after 96 hrs by crystal violet staining based assay
pIC50: −log10 of the molar value.
assay metric: pIC50

Here's what some known entries look like.
- CCC(C(=O)Nc1ccc(-c2ccc3nc(Nc4ccc(S(C)(=O)=O)cc4OC)nn3c2)cc1)c1ccc(F)cc1 (racemic): 5.12
- CC(C)CNc1cc(-c2ccccc2)nn2c(-c3ccc(C(=O)NC4CC4)cc3)cnc12: 5.81
- COc1cc(S(C)(=O)=O)ccc1Nc1nc2ccc(-c3ccc(NC(=O)[C@@H](C)c4ccc(F)cc4)cc3)cn2n1: 5.15

1. COc1cc(C(=O)N(C)C)ccc1Nc1nc2ccc(-c3ccc(NC(=O)Cc4ccc(F)cc4)cc3)cn2n1
2. CC(C)CNc1nc(-c2ccccc2)cc2c(-c3ccc(C(=O)NC4CC4)cc3)cnn12
3. N#Cc1ccccc1Nc1nc2ccc(-c3ccc(NC(=O)Cc4ccccc4)cc3)cn2n1
Request: Ordering: ascending pIC50. Return value: ordered labels per request.
Result: 2, 3, 1

1. COc1cc(C(=O)N2CC(F)C2)ccc1Nc1nc2ccc(-c3ccc(NC(=O)Cc4ccc(F)cc4)cc3)cn2n1
2. COc1cc(S(C)(=O)=O)ccc1Nc1nc2ccc(-c3ccc(NC(=O)[C@H](C)c4ccc(F)cc4)cc3)cn2n1
Request: Kindly compare 1 with 2 and tell me which has the lower pIC50 figure. To answer, give the label that identifies your chosen option.
Result: 2

1. CC(C)CNc1cc(-c2ccccc2)cc2c1ncn2-c1ccc(C(=O)NC2CC2)cc1
2. COc1cc(C(=O)N2CC(F)C2)ccc1Nc1nc2ccc(-c3ccc(NC(=O)[C@H](C)c4ccc(F)cc4)cc3)cn2n1
Request: Kindly compare 1 with 2 and tell me which has the lower pIC50 figure. To answer, give the label that identifies your chosen option.
Result: 1

----------
test name: Volume of distribution at steady state in Wistar rat at 0.1 to 0.5 mg/kg, iv administered as bolus dose measured up to 24 hrs by HPLC-MS-MS analysis
Format: ADME, organism-based
condition details: Wistar, in vivo, read-out: Vdss
assay metric: Vd (L/kg)

Here's what some known entries look like.
* COc1ccc(Oc2cc(NCCC(F)(F)F)c3ncc(-c4ccc(C(=O)NC5CC5)c(C)c4)n3n2)c(F)c1F [BAY-1217389] | 2.2
* C=C(c1ccc(OC)c(F)c1)c1cc(NCCC(F)(F)F)c2ncc(-c3ccc(C(=O)NC4CC4)c(C)c3)n2n1 | 2.1
* COc1cc(S(C)(=O)=O)ccc1Nc1nc2ccc(-c3ccc(NC(=O)[C@H](C)c4ccc(F)cc4)cc3)cn2n1 [BAY-1161909] | 2.4

A. Cc1cc(-c2cnc3c(NCCC(F)(F)F)cc(C4(c5cc(F)ccc5O)CC4)nn23)ccc1C(=O)NC1CC1
B. COc1cc(C(=O)N2CC(F)C2)ccc1Nc1nc2ccc(-c3ccc(NC(=O)[C@H](C)c4ccc(F)cc4)cc3)cn2n1
Request: Between the two listed entries A and B , which has its Vd at the higher number? To answer, give the label that identifies your chosen option.
Result: A

----------
Test system: HeLa
test name: cells
condition details: Homo sapiens, 96 h
assay metric: IC50 (nM)

• COc1cc(N2CCOC2=O)ccc1Nc1nc2ccc(-c3ccc(NC(=O)[C@H](C)c4ccc(F)cc4)cc3)cn2n1 = 270
• COc1cc(C(=O)N2CC3(COC3)C2)ccc1Nc1nc2ccc(-c3ccc(NC(=O)Cc4ccc(F)cc4)cc3)cn2n1 = 85

I. O=C(Cc1ccc(F)cc1)Nc1ccc(-c2ccc3nc(Nc4ccc(C(=O)N5CCOCC5)cc4OCC(F)(F)F)nn3c2)cc1
II. N#Cc1ccccc1Nc1nc2ccc(-c3ccc(NC(=O)Cc4ccc(F)cc4)cc3)cn2n1
III. COc1cc(C(=O)N2C[C@@H]3C[C@H]2CO3)ccc1Nc1nc2ccc(-c3ccc(NC(=O)Cc4ccc(F)cc4)cc3)cn2n1
Request: Ordering: ascending IC50. Return value: ordered labels per request.
Result: I, III, II
